Every entry's value here was drawn from a protein production outcome set (Wang et al. 2014).

method summary: label from the status in PepcDB records;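 also: failed if final PepcDB status was selected cloned or expressed and not failed if soluble or beyond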

>  <sequence entry>
MLTANIQAASSTRRYSDYVTRSWSHALPIGRKRINLDAIAQLAGERDIVGLQESDPGSLRSGFTNQTCYLAQRAGFHYWSHQPNRRMAGVASSANGLLSRLKPRQIHNHALPGRIPGRGVLLAKFGNGGFDSLVVAVVHLSLGVRSRMAQLVFIADLLAEYPNTILMGDFNCRADCSEMQVLYRRTRLQPPGVVIPTFPSWRPERAIDHILVSEGFYICKTEAVPAAFSDHLAVSMDLVIPQRILRLEHHHHHH

>  <protein production>
failed

$$$$
>  <sequence entry>
MLNKFKKIVGVSVLVGCLGVLQAKNSLFVLPYEQKDALNSLVSGISNARESVKIAIYSFTHRDIARAIKSVASRGIKVQIIYDYESNHHNKQSTIGYLDKYPNTKVCLLKGLKAKNGNYYGIMHQKVAIIDDKIVFLGSANWSKNAFENNYEVLLKTDDTETILKAKSYYQKMLGSCVGF

>  <protein production>
failed

$$$$

====

method summary: label from the status in PepcDB records

>  <sequence entry>
EKMTRDEIAYMLTNSEETLDADEIEMLQGVFSLDELMAREVMVPRTDAFMVDIQDDSQAIIQSILKQNYSRIPVYDGDKDNVIGIIHTKSLLKAGFVDGFDNIVWKRILQDPLFVPETIFVDDLLKELRNTQRQMAILLDEYGGMAGLVTLEDLLEEIVGEID

>  <protein production>
not failed

$$$$
>  <sequence entry>
MTATASTVLPARALLLDMDGTLVNSDAAVDRVWRRWADRHGLDGDEVMKVVHGRQGYASMALLLPDRPMEHNHADNARMLAEETADTEGVVAIPGAAEFLASLRGLPHALVTSADVALSTARMAAAGLAQPDVRVTAESVGASKPDPEGFLKGAAELGIAPADCVVFEDSGAGIAAGRAAGMRVVGVGPRAGFHGPDVVVEDLTRVRVEADADGGLRLHIG

>  <protein production>
failed

$$$$
>  <sequence entry>
TAQLTIEAVPSNAAEGKEVLLLVHNLPQDPRGYNWYKGETVDANRRIIGYVISNQQITPGPAYSNRETIYPNASLLMRNVTRNDTGSYTLQVIKLNLMSEEVTGQFSVHPETPKPSI

>  <protein production>
not failed

$$$$
>  <sequence entry>
MSSITADNAGQYGDSRKLAARARLHSQYTIAETAWFPWVAAQLSLKPGDRVLDVGCGPAWFWAATTGLLPADLDLTLTDLSPGMVDEAVARCSALPFGSVRGCQADAAALPFEDGAFDAVVAMHMLYHLTDPVAGIADMSRVLKPGGLLAVTTNGAGNMREIYALTTLFGSAPSDPAAEAFGYDAAERSMRSQFGNVTMSQHPASLRITEPEDVFLALTSYPPGDGAGEPQLTRFRQAIADAFSQRSGVLEVSKETALFLSRKTV

>  <protein production>
failed

$$$$

====

method summary: label from the status in PepcDB records

>  <sequence entry>
MTHASILISVIIPAYNAAKFLPDAIASVEKQTFTDWELLIINDGSTDDTIEVVREHQKTSDCIYLINQTNQGVSAARNQGVAHSQGQIIAFLDADDQWLPDKLSQHWQHFQSNSRLGVSFAQVEILDQAGEPTGQVSTSRLNDLKPEYFLSENPTTTTSNWVIRKEVFTQVGGFCLDMSYSEDLEWLLRVSSTTDWQIQGINQVLTRYRTSSSGLSSNLYYMEAGWKQLVNRARIYAPQLVHNHFALAQAVHLRYLARRAFRLKLPARVGVDFITRALISDWRLLFHQPQRTFFTLLAVFGALVMERVFGLNTHRGSTAKAEPFRGSIP

>  <protein production>
failed

$$$$
>  <sequence entry>
MVFCRGCAKEISDDAGTCPHCGAPQLIISSASANKEAPASGNWYFEVLKKYAVFTGRARRKEYWMFFLFNVLISIVIGVIGGLVGDGGILANLYSLAVLVPGIAVGVRRLHDTDRSGWWLLVPIANLVFLVQEGHAGPNRFGPSPK

>  <protein production>
failed

$$$$
>  <sequence entry>
MEKKVGTDRVKRGMAQMQKGGVIMDVVNAEQAKIAEEAGAVAVMALERVPSDIRAAGGVARMADPRIVEEVMNAVSIPVMAKARIGHITEARVLEAMGVDYIDESEVLTPADDEFHLLKSDFTVPFVCGCRDIGEALRRIGEGAAMLRTKGEPGTGNIVEAVRHMRQVNGQIRQIASMTDDELMVAAKNFGAPYELVKEIKTLGKLPVVNFAAGGVATPADAALMMELGADGVFVGSGIFKSDNPAKFASAIVQATTYYTDYELIGKLSKELGSPMKGIEMSRLNPEDRMQDRSF

>  <protein production>
failed

$$$$
